System: Acinetobacter baumannii
Test: MIC micro broth dilution assay
Type: cell-based
Set-up: key: stacked score = 100/MIC
Conditions: A. baumannii
Property measured: stacked score activity, 100/MIC, A
No unit in the answer, please; the number alone is enough.

Recorded results for 3 compounds are shown here.
Cc1cccc(CCN2CCN(CCCC[C@H]3CNC(=N)N3CC3CCC(C)CC3)C2=N)c1 (stereo partly drawn) :: 0
CCC(C)[C@H]1CN(CCCC[C@H]2CNC(=N)N2CC2CCCCC2)C(=N)N1 (stereo partly drawn) :: 0
CCC[C@@H]1CN(CCCC[C@H]2CNC(=N)N2CC2CCCCC2)C(=N)N1 :: 0

The recorded stacked score activity, 100/MIC, A for CCC(C)CN1CCN(CCCC[C@H]2CNC(=N)N2CC2CCC(C)CC2)C1=N (stereo partly drawn) is 0

The recorded stacked score activity, 100/MIC, A for "N=C1NC[C@H](CCCCN2C[C@@H](Cc3cccc4ccccc34)N(CCc3ccc(-c4ccccc4)cc3)C2=N)N1CCc1cccc(C(F)(F)F)c1" is 20

The recorded stacked score activity, 100/MIC, A for "CCCC[C@H]1CN(CCCC[C@H]2CNC(=N)N2CCCCC2CCCCC2)C(=N)N1CCc1ccc(-c2ccccc2)cc1" is 25

The recorded stacked score activity, 100/MIC, A for CC1CCC(CN2C(=N)NC[C@@H]2CCCCN2CCNC2=N)CC1 (stereo partly drawn) is 0

The recorded stacked score activity, 100/MIC, A for "CCCCCCCN1C(=N)NC[C@@H]1CCCCN1CCNC1=N" is 0

The recorded stacked score activity, 100/MIC, A for "N=C1NC[C@H](CCCCN2C[C@H](CC3CCCCC3)N(CCCCC3CCCCC3)C2=N)N1CCC12CC3CC(CC(C3)C1)C2" is 20

The recorded stacked score activity, 100/MIC, A for CCCCCCCN1C(=N)NC[C@@H]1CCCCN1CCN(CC(C)CC)C1=N (stereo partly drawn) is 0

The recorded stacked score activity, 100/MIC, A for CCC(C)CN1C(=N)N(CCCC[C@H]2CNC(=N)N2CC2CCC(C)CC2)C[C@@H]1C(C)CC (stereo partly drawn) is 0

The recorded stacked score activity, 100/MIC, A for CCC(C)[C@H]1CN(CCCC[C@H]2CNC(=N)N2CC2CCC(C)CC2)C(=N)N1 (stereo partly drawn) is 0

The recorded stacked score activity, 100/MIC, A for CCCCCCCN1C(=N)NC[C@@H]1CCCCN1C[C@@H](CCC)N(CC(C)CC)C1=N (stereo partly drawn) is 0

The recorded stacked score activity, 100/MIC, A for "N=C1NC[C@H](CCCCN2C[C@H](CC3CCCCC3)N(CCCCC3CCCCC3)C2=N)N1CCc1cccc(C(F)(F)F)c1" is 20

The recorded stacked score activity, 100/MIC, A for "N=C1NC[C@H](CCCCN2C[C@H](CC3CCCCC3)N(CCc3ccc(-c4ccccc4)cc3)C2=N)N1CCCCC1CCCCC1" is 20

The recorded stacked score activity, 100/MIC, A for "N=C1NCCN1CCCC[C@H]1CNC(=N)N1CC1CCCCC1" is 0

The recorded stacked score activity, 100/MIC, A for CCC(C)[C@H]1CN(CCCC[C@H]2CNC(=N)N2CC2CCC(C)CC2)C(=N)N1CCc1cccc(C)c1 (stereo partly drawn) is 4

The recorded stacked score activity, 100/MIC, A for "CCCCCCCN1C(=N)N(CCCC[C@H]2CNC(=N)N2CCc2cccc(C(F)(F)F)c2)C[C@@H]1CCCC" is 20

The recorded stacked score activity, 100/MIC, A for "N=C1NC[C@H](CCCCN2C[C@@H](Cc3cccc4ccccc34)N(CCCCC3CCCCC3)C2=N)N1CCCCC1CCCCC1" is 20

The recorded stacked score activity, 100/MIC, A for CCC(C)CN1C(=N)N(CCCC[C@H]2CNC(=N)N2CC2CCCCC2)C[C@@H]1C(C)CC (stereo partly drawn) is 0

The recorded stacked score activity, 100/MIC, A for CCCCC1CN(CCCCC2CNC(=N)N2CCC23CC4CC(CC(C4)C2)C3)C(=N)N1CCCCC1CCCCC1 (stereo not drawn) is 25

The recorded stacked score activity, 100/MIC, A for "N=C1NC[C@H](CCCCN2C[C@H](CC3CCCCC3)N(CCCCC3CCCCC3)C2=N)N1CCCCC1CCCCC1" is 20
